- target.or.system: HLA-A*24:02
- procedure.details: IEDB peptide-MHC binding, purified MHC/competitive/radioactivity; filed as Kd, often an IC50 or EC50 that approximates it; bounds were set here for any values at or beyond the usual limits of such assays
- assay.conditions: source organism: Mammarenavirus guanaritoense
experimental.endpoint: Kd (µM)
Please state the figure in µM; there is no need to write the unit.

Lab note: sequence `AIFFTTSLF` tested on HLA-A*24:02; recorded Kd was 1.21

----------
- target.or.system: HLA-B*27:03
- procedure.details: IEDB peptide-MHC binding, purified MHC/competitive/fluorescence; filed as Kd, often an IC50 or EC50 that approximates it; bounds were set here for any values at or beyond the usual limits of such assays
- assay.conditions: source organism: Giardia lamblia ATCC 50803
experimental.endpoint: Kd

# Kd of `ELLDHLLLF` = ≥ 20 µM
